# measured-target: ROCK1 (Homo sapiens (Human), UniProt Q13464)
# Sequence (Q13464 whole entry, species assumed): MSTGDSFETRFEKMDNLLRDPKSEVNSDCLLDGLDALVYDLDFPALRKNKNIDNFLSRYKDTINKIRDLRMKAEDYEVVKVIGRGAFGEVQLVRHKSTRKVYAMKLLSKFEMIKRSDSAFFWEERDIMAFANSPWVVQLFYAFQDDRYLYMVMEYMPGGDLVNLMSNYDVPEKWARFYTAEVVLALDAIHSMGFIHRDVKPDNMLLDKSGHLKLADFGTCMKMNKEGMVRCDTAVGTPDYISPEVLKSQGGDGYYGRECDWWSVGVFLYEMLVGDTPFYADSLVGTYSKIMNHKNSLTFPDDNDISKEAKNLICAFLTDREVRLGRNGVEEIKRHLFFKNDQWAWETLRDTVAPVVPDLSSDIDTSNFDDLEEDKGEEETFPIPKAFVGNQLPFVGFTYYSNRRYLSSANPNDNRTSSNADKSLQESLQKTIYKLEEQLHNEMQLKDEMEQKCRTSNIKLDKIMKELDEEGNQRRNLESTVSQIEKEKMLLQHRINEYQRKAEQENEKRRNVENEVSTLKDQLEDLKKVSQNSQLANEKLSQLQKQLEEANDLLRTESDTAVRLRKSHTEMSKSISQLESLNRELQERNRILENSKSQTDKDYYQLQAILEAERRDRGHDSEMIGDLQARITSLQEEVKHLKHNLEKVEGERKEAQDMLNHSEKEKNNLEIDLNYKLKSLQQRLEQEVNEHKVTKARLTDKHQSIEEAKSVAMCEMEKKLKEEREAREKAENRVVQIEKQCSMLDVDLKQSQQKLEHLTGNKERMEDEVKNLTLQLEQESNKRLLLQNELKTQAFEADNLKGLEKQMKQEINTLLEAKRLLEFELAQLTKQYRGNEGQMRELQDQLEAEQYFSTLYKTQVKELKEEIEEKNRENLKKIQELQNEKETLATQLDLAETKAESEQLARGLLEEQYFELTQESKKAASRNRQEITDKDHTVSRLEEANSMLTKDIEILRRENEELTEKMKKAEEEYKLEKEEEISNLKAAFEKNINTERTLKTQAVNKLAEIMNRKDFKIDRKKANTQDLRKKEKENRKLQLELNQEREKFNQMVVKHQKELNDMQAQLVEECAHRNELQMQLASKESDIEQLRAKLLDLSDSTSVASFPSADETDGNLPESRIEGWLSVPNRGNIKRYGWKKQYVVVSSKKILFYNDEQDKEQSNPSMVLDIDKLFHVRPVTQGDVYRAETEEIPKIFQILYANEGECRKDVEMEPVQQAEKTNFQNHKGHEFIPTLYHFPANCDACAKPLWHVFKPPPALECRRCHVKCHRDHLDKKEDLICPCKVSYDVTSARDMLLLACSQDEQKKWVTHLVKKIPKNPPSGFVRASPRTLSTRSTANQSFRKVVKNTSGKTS
# assay-notes: FRET-based Z'-Lyte kinase assay, ROCK1;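 note: kinase phosphorylates a coumarin/fluorescein-labelled FRET peptide, then a protease cleaves unphosphorylated peptide, progress read as donor to acceptor emission ratio after 400 nm excitation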
# Type: biochemical
# assay-context: read-out: IC50 ± SD (μM) ROCK1
Counter-ions that a name gives are not always drawn.
Criterion met if IC50 is below 2 µM. Criterion not met if not; exact matches included in Criterion not met.

C[C@H](NC(=O)Nc1nc(-c2ccncc2)cs1)c1cccc(Cl)c1    Criterion not met
NC(=O)[C@@H](NC(=O)Nc1nc(-c2ccncc2)cs1)c1ccccc1    Criterion met
C[C@H](NC(=O)Nc1nc(-c2ccncc2)cs1)c1cccc(F)c1    Criterion not met
Nc1ccc(CNC(=O)Nc2nc(-c3ccncc3)cs2)cc1    Criterion not met
O=C(NCc1cccc2[nH]ccc12)Nc1nc(-c2ccncc2)cs1    Criterion not met

input: IC50 under 2 µM? Item: NC(=O)Nc1cccc(CNC(=O)Nc2nc(-c3ccncc3)cs2)c1 [Compound 1cj, hydrochloride]
output: Criterion met

input: IC50 under 2 µM? Item: `O=C(NCc1ccc(Cl)cc1)Nc1nc(-c2ccncc2)cs1`
output: Criterion not met

input: IC50 under 2 µM? Item: `O=C(Nc1nc(-c2ccncc2)cs1)NC(c1ccccc1)c1ccccc1`
output: Criterion met

input: IC50 under 2 µM? Item: `O=C(NCc1ccccc1Cl)Nc1nc(-c2ccncc2)cs1`
output: Criterion met
